# target.of.assay: T1, human GIPR (glucose-dependent insulinotropic polypeptide receptor) (human, UniProt P48546 22-466)
# T1 sequence (looked up): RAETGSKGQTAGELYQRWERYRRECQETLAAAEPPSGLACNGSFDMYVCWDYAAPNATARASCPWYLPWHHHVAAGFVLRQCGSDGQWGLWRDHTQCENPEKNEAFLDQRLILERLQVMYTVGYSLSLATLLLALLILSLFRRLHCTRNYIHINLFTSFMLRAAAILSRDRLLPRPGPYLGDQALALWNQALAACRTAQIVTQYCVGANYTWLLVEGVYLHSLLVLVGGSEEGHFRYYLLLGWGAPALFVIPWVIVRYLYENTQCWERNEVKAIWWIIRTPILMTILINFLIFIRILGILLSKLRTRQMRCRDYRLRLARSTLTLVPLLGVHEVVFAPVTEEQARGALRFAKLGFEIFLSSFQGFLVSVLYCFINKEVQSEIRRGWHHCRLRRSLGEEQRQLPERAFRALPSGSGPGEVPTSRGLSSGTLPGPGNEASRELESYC
# test.summary: cell-based or functional assay
Non-standard residues stand in square brackets, D forms with d. Primed or numbered codes have the meaning given here. *: point of attachment. dPhe(3,5-F2) = N[C@H](Cc1cc(F)cc(F)c1)C(=O)O; dPhe(3-F) = N[C@H](Cc1cccc(F)c1)C(=O)O; Desaminotyrosyl = O=C(CCc1ccc(O)cc1)*; dPhe(3,4,5-F3)′ = not defined here
// NB: equality with 0.005 nmol counts as Not fulfilled; only EC50 (nMol), cAMP strictly below is Fulfilled

{"binder": "Ac-[dPhe(3,4,5-F3)′]AEGTFISDYSIAMDKIHQQDFVNWLLAQK-NH2 (also: 1:2 TFA salt)", "class.assignment": "Not fulfilled"}
{"binder": "[Desaminotyrosyl]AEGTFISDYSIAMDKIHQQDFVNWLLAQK-NH2 (also: 1:2 TFA salt)", "class.assignment": "Not fulfilled"}
{"binder": "Ac-[dPhe(3-F)]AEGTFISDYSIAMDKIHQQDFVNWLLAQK-NH2 (also: 1:2 TFA salt)", "class.assignment": "Not fulfilled"}
{"binder": "Ac-[dPhe(3,5-F2)]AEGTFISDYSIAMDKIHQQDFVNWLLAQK-NH2 (also: 1:2 TFA salt)", "class.assignment": "Fulfilled"}
